// K (velocity/rate constant) lookup, one value per entry
- Tested on: fructosamine oxidase
- TEST_DESCRIPTION: fructosamine oxidase inhibition assay in human sera (ferricytochrome c, g-BSA substrate)
- Assay type: biochemical
- EXPERIMENTAL_CONDITIONS: 1.0 μM inhibitor
Write the answer as a number in min⁻¹, unit excluded.

The cases that follow already have their K (velocity/rate constant) on record.
MOLECULE: C[C@@](Cc1ccc(O)c(O)c1)(NN)C(=O)O [carbidopa]
K (velocity/rate constant) / min⁻¹: 0.1496
//
MOLECULE: NNC(=O)C(=O)NN [oxalic dyhydrazide]
K (velocity/rate constant) / min⁻¹: 0.0542
//
MOLECULE: NCCCC[C@H](N[C@@H](CCc1ccccc1)C(=O)O)C(=O)N1CCC[C@H]1C(=O)O [lisinopril]
K (velocity/rate constant) / min⁻¹: 0.0174

Next up:
Q. Item c1cnc2c(c1)ccc1cccnc12 [o-phenathroline] has what recorded K (velocity/rate constant)?
A. 0.0385

Hello, the source for this data is patent US7459446B2, in case you need it.
